Tested on: Mycobacterium tuberculosis H37Rv
Assay: Mycobacterium tuberculosis H37Rv Inhibition Assay (resazurin MIC)
Format: cell-based
Settings: read-out: MIC value, H37Rv strain, six days incubation, resazurin fluorescence after 48 hours
Where a name gives a salt, the structure may show the parent alone.
metricName: MIC

Worked cases, MIC given:
INSERT INTO measurements (molecule, result) VALUES
  ('O=c1ccc2ccc(=O)n3c2n1C[C@H]3CN1CCC(NCc2nc3cccc(F)c3[nH]2)CC1 [Example 46, dihydrochloride]', '< 2 µg/mL'),
  ('O=c1ccc2ccc(=O)n3c2n1C[C@H]3CN1CCC(NCc2cc3c(cn2)OCCS3)CC1 [Example 6A, hydrochloride]', '< 2 µg/mL'),
  ('O=c1ccc2ncc(=O)n3c2n1CC3CN1CCC(NCc2cc3c(cn2)OCCS3)CC1 (stereo not drawn) [Example 20, hydrochloride]', '< 2 µg/mL'),
  ('O=c1ccc2ccc(=O)n3c2n1CC3CN1CCC(NCc2cc3c(cn2)OCS3)CC1 (stereo not drawn) [Example 2, hydrochloride]', '< 2 µg/mL'),
  ('O=C1CSc2cnc(CNC3CCN(C[C@@H]4Cn5c(=O)ccc6ccc(=O)n4c65)CC3)nc2N1 [Example 34, dihydrochloride]', '< 2 µg/mL');

Now look at this one.
Q) Fill blank: measured MIC of the molecule O=c1cnc2ccc(=O)n3c2n1C[C@H]3CN1CCC(NCc2ccc3c(c2)OCCO3)CC1 [Example 44, hydrochloride] is ____.
A) < 2 µg/mL
